System: HS 578T breast
Test: NCI-60 one-dose screen, 48 h
Conditions: 10 µM unless noted
Method: Growth inhibition of the HS 578T human tumor cell line is measured as a screen for anti-cancer activity. Cells are grown in 96 well plates and exposed to the test compound for 48 hours. Compounds are tested at a single concentration, which is 10^-5 M for most compounds. The reported endpoint is percent growth (GI% or GIPRCNT), where numbers from 0 - 100% represent growth inhibition, and numbers from -100% - 0 represent cell death. For example, a value of 40 represents 60% growth inhibition. […]
The panel holds about 83,000 compounds, 20% with a hit somewhere; the sample as a whole holds those more often. Calls of active or inactive are those of the source. The calls were made as follows: active = growth percent below 10; inactive = the rest.
Select the correct class. Options are active, inactive and nothing else.

Illustrative cases are given below, each with its answer.
>  <molecule>
CCN1C(=O)N(CC)C2C1N=C(SC)N2/N=C/C=C/c1ccccc1OC (stereo not drawn)

>  <tested.on>
HS 578T breast

>  <class>
inactive

$$$$
>  <molecule>
C#CCNc1nc(NCCNC(=O)CCl)nc(N(C)CCCCc2ccccc2)n1

>  <tested.on>
HS 578T breast

>  <class>
inactive

$$$$
>  <molecule>
CN1C2CCC1/C(=C\c1ccc(Cl)cc1)C(=O)/C2=C/c1ccc(Cl)cc1

>  <tested.on>
HS 578T breast

>  <class>
inactive

$$$$
>  <molecule>
O=[N+]([O-])c1ccc(SSc2ccc([N+](=O)[O-])cc2Cl)c(Cl)c1

>  <tested.on>
HS 578T breast

>  <class>
inactive

$$$$

Ask: I'd appreciate the recorded outcome for CS(=O)(=O)c1ccc(C(=O)N2N=C(c3ccccc3)CC2c2ccc3c(c2)OCO3)cc1 (stereo not drawn) from this test.
Reply: inactive

Ask: I'd appreciate the recorded outcome for O=C1Nc2ccc(Cl)cc2/C1=C\c1c(-c2ccc(F)cc2)nc2ccccn12 from this test.
Reply: active

Ask: I'd appreciate the recorded outcome for O=C1C(Cl)=C(Nc2cccc3ccccc23)C(=O)c2ccccc21 from this test.
Reply: inactive

Ask: I'd appreciate the recorded outcome for CCn1c(Cc2ccccc2Nc2c(Cl)cccc2Cl)nnc1SCC(=O)Nc1cccc(OC)c1 from this test.
Reply: inactive

Ask: I'd appreciate the recorded outcome for Nc1c(C(=O)C[C@@H](N)CO)ccc2c1C(=O)CCO2 from this test.
Reply: inactive

Ask: I'd appreciate the recorded outcome for Clc1cc(Cl)cc(-c2cnc3nonc3n2)c1 from this test.
Reply: inactive

Ask: I'd appreciate the recorded outcome for CCN(CC)c1ccc(/C=N/NC(=O)C[N+](C)(C)C)cc1 from this test.
Reply: inactive

Ask: I'd appreciate the recorded outcome for COc1cc2c(c(OC)c1O)C(=O)C(OC)C(c1ccc(O)c(O)c1)O2 (stereo not drawn) from this test.
Reply: inactive

* * *

system: HOP-62 NSCLC; experiment: NCI-60 one-dose screen, 48 h (100 = growth as untreated, 0 = no growth, -100 = all killed); conditions: 10 µM unless noted
This is part of a sample that, as a whole, favours compounds with a hit. Of some 83,000 tested, about 20% had one in any assay.
quantity.name: growth (%)
Numbers only, in %.

>  <compound>
FC(F)(F)c1nn[nH]n1

>  <growth [%]>
125

$$$$
>  <compound>
COc1cnc2c(c1)C(=O)c1c-2n(CCCN2CCCC2)c(=O)c2cc(Cl)ccc12

>  <growth [%]>
16.2

$$$$
>  <compound>
CN(C)c1ccc(/C=C\c2cccc[n+]2C)cc1

>  <growth [%]>
48

$$$$
>  <compound>
COc1ccc([C@H]2c3[nH]c4ccccc4c3C[C@H]3C(=O)N(CCCCCCC(=O)NO)CC(=O)N23)cc1

>  <growth [%]>
42.9

$$$$
>  <compound>
CCOC(=O)C1OC2(CCCC2)OC1C(=O)OCC (stereo unspecified)

>  <growth [%]>
103

$$$$

Turning now to a further compound:
Ask: Give reported growth for COc1cc(OC)c2sc(-c3ccc(-n4cncc4-c4ccc(OC)c(N)c4)cc3)nc2c1 (HOP-62 NSCLC)
Reply: 117
